ASSAY PROCEDURE: yeast display, Sf9 membrane polyspecificity reagent, FACS + sequencing; frameworks hold sequencing errors
EXPERIMENTAL READOUT: polyreactivity (PSR sort gate)

CHAIN SEQUENCE	polyreactivity (PSR sort gate)
QVQLVETGGRIVQAGGSLRLSCAASGRIMDTNAMGWYRQAPGKEREFVAAITWIDGSTYYADSVKGRFTISRDNATNTVYLQMNSLKPEDTAVYYWNVQYTVDRYPSPPYSETGDYWGQGTQVTVSS	low polyreactivity
QVQLVESGGGLVQAGGSLRLSCAASGRTFYGYAMGWYRQAPGKERELVASISRDGSTNYADSVKGRFTISRDNAKNTVYLQMYSLKPEDTAVYYCAADIWYYRYPIYYYSYDYWGQGTQVTVSS	low polyreactivity
QVQLVESGGGLVQAGGSLRLSCAASGFTFVRYAMGWYRQAPGKERELVAAISSGGRTYYADSVKGRFTISRDNAKNTVYLQMNSLKPEDTAVYYCAADTKFGYGYWGQGTQVTVSS	high polyreactivity
QVQLQESGGGLVQAGGSLLSCAASGTISWVDEMGWYRQAPGNERELVAGIAGGGNTNYADSVKGRFTISRDNAKNTVYLQMNSLDTAVYSCAVVGFGRGTHIYWGQGTQVTVSS	high polyreactivity
QVQLVESGAGLVQAGGSLRLTCAASGIIFPFYAMGWYRQAPGKERELVAGITSGGDTYYADSVKGRFTISRDNAKNTVYLQMNSLKPEDTAVSYCAAVYRRQYGYWGQGTQVTVSS	high polyreactivity
QVQLVESGGGLVQAGGSLRLSCAASGITFHRYAMRWYRQAPGKERELVAAINGGGGSTYYADSVKGRFTISRDNAKNTVYLQMNSLKPEDTAVYYCAAEVQNGVHIYDYWGQGTQVTVSS	high polyreactivity
QVQLEESGGGLVQAGGSLRLSCAASGFIFSSNAKGWYRQAPGKERELVAAISSSGGRTYYADSVKGRFTISRDNAKNPVYLQMNSLIPEYTAVYYCNADPRSLGSANDWGQGTQVTVSS	high polyreactivity
QVQLVDSGGGLVQAGGSLRLSCAASGSTFKYYGMGWYRQAPGKERELVASISSSGTRTYYADSVKGRFTISRDNAKNTVYLQMNSLKAEDTAVYYCAADSYATYFLYDSWGQGTQVTVSS	low polyreactivity
QVQLVESGGGLVQAGGSLRLSCAASGITFYRYAMGWYRQARGKERELVADITSSGGSTYYADSVKGRFTISRDNAKNTVYLQMNSLKPEDTAVYYFNAAYYFSRIVYPYDYWGQGTQVTVSS	high polyreactivity
QVQLVESGGGLVQAGGSLRLSCAASGRTFEYNAMGWYRQAPGKERELVAAISSSGGSTRYADSVKGRFTISRDNAKNTVYLQMNSLKPEDTAVYYCAKRGYTSSRRWIYDYRGQGTQVTVSS	high polyreactivity

**Q:** Can you share its polyreactivity (PSR sort gate)? I mean this sequence: QVQLVESGGGLVQAGGSLRLSCAASGSTFVDYAMGRYRQAPGKERELVAAITRSGSSTYYADSVKGRFTISRDIAKNTVYLQMNSLKPEDTAVYYCAAVRYRGLQVKFYYWGQGTQVTVSS
**A:** high polyreactivity

**Q:** Quick one: QVQLVESGGGLVQAGGSLRLSCAASGRIFGAYAMGWYRQAPGKERELVATITKRGGSTFYADSVKGRFTISRDNAKNTVYLQMNSLKPEDTAVYYCAVSSFYRGRYDYWGQGTQVTVSS
**A:** high polyreactivity

**Q:** Same read-out for QVHLVESVGGLVQAGGSLRLSCAASGFILAVYVLGWYRQAPGKDRELVAAISWSGGSTYYADSVKGRFTISRDNAKNTVYLQMNSLKPEATAVYYCNTVAKSPVKYDYWGQGTQVTVSS ?
**A:** high polyreactivity

**Q:** Input QVQLVESGGGLVQAGGSLRLTCAASGFIFNYNTMGWYRQAPGKERELVAGINWSGTRTYYADSVKGRFTISRDNAKNTDYLQMNSLKPEDTAVYYCNAYTQQYRSYGYWGQGTQVTVSS
**A:** high polyreactivity

**Q:** Same thing, different sequence: QVQLVESGGGLVQAGGSLRLSCAASGSILYPYAMGWYRQAPGKERELVAAISRGGSTNYADSVKGRFTISRDNAKNTVYLQMNSLKPEDTAVYYCATAYTRFSQRYEYYVIYWQNDYWGQGTQVTVSS
**A:** low polyreactivity

Values compiled from the nanobody polyreactivity screen of Harvey et al. (2022).
